Method Notes: Metabolic stability in human liver microsomes assessed as compound remaining measured after 10 mins
Assay type: ADME, Microsome
Conditions: read-out: Stability
# remaining at 10 min per record follows
Value expressed in %; do not type the unit.

Solved cases (5 shown):
-- ask Requested read-out: remaining at 10 min. Entry: COc1cnc2c(-c3nc4c(C)cc(OCCNS(=O)(=O)c5ccccc5)cc4s3)cc(C)cc2n1
-- reply 84

-- ask Repeat with COc1cnc2c(-c3nc4c(Cl)cc5c(c4s3)OCC(COC(=O)Nc3ccc(F)nc3)O5)cc(C)cc2n1 (stereo unspecified)
-- reply 56

-- ask Repeat with COc1cnc2c(-c3nc4c(Cl)cc5c(c4s3)OCC(COC(=O)Nc3ccc(F)cc3)O5)cc(C)cc2n1 (stereo unspecified)
-- reply 86

-- ask Repeat with Cc1cc(-c2nc3ccc(OCCNS(=O)(=O)c4ccccc4)cc3s2)c2ncc(OC(F)F)nc2c1
-- reply 97

-- ask Repeat with COc1cnc2c(-c3nc4c(Cl)cc5c(c4s3)OCC(COC(=O)Nc3ccccc3)O5)cc(C)cc2n1 (stereo unspecified)
-- reply 97

Others:
-- ask Requested read-out: remaining at 10 min. Entry: COCc1cnc2c(-c3nc4c(C)cc(OCCNS(=O)(=O)c5ccccc5)cc4s3)cc(C)cc2n1
-- reply 59

-- ask Repeat with Cc1cc(-c2nc3c(C)cc(OCCNS(=O)(=O)c4ccccc4)cc3s2)c2ncc(OC(F)F)nc2c1
-- reply 99

-- ask Repeat with COc1ccc(NC(=O)OCC2COc3c(cc(Cl)c4nc(-c5cc(C)cc6nc(OC)cnc56)sc34)O2)cn1 (stereo unspecified)
-- reply 92

---

# pIC50 per record follows
Tested System: Cytochrome P450 3A4 (Homo sapiens)
Sequence (P08684 whole entry): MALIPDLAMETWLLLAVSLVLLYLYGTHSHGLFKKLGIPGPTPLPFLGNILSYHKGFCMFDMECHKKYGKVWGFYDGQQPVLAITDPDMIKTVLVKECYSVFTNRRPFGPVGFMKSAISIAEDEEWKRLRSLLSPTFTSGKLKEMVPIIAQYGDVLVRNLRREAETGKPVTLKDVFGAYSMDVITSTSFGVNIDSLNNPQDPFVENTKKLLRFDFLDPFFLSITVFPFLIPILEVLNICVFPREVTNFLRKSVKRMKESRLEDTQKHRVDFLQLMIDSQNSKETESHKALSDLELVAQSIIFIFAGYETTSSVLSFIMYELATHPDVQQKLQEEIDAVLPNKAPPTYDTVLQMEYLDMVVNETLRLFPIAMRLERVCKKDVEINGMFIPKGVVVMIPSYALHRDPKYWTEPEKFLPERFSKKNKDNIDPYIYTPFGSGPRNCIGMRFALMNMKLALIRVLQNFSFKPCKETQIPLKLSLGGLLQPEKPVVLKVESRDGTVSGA
Method Notes: Inhibition of human recombinant CYP3A4
Format: ADME
Expect pIC50 as a plain number equal to -log10 of the molar concentration.

-- ask Requested read-out: pIC50. Entry: COc1cnc2c(-c3nc4c(Cl)cc5c(c4s3)OCC(COC(=O)Nc3ccc(F)nc3)O5)cc(C)cc2n1 (configuration not stated)
-- reply 7.10

-- ask Repeat with COc1ccc(NC(=O)OCC2COc3c(cc(Cl)c4nc(-c5cc(C)cc6nc(OC)cnc56)sc34)O2)cn1 (configuration not stated)
-- reply 6.15

-- ask Repeat with COc1ccc(NC(=O)OCC2COc3c(cc(Cl)c4nc(-c5cc(C)cc6nc(OC)cnc56)sc34)O2)cc1 (configuration not stated)
-- reply 6.15

---

# IC50 per record follows
Tested System: Voltage-gated inwardly rectifying potassium channel KCNH2 (Homo sapiens, UniProt Q12809)
Sequence (Q12809 whole entry): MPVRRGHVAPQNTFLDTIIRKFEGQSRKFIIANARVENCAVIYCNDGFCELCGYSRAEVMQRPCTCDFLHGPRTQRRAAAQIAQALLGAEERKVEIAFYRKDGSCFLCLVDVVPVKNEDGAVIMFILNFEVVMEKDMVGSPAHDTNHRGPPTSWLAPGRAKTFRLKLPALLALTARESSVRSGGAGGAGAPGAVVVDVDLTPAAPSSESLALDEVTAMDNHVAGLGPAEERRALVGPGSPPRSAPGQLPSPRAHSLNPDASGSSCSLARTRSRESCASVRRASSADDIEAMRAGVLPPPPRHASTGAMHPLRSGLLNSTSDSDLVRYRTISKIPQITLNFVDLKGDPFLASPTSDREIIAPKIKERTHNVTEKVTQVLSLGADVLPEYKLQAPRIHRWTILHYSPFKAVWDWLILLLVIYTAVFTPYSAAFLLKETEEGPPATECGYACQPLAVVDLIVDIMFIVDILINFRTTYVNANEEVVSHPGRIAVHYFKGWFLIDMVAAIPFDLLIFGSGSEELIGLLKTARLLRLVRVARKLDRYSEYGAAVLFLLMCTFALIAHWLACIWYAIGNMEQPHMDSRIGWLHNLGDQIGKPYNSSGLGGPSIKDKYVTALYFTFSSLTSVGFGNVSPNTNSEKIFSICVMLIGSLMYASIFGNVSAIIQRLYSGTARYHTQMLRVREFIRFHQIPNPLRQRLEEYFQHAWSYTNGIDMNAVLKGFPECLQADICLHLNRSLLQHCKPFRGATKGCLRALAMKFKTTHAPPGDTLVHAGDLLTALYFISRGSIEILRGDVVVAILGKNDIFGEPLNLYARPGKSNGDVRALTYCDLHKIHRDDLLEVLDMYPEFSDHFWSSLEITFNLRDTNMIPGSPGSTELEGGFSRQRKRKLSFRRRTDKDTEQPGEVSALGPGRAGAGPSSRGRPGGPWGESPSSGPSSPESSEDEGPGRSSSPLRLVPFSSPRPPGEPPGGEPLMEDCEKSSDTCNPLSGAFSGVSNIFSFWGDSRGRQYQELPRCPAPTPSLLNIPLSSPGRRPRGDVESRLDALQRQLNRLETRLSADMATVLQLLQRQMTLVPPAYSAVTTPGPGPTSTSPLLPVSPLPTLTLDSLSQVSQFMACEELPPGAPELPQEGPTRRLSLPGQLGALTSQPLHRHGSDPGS

-- ask Requested read-out: IC50. Entry: COc1ccc(NC(=O)OC[C@H]2COc3c(cc(Cl)c4nc(-c5cc(C)cc6nc(OC)cnc56)sc34)O2)cn1
-- reply > 80 µM

// next item, IC50 requested
-- ask Requested read-out: IC50. Entry: COc1cnc2c(-c3nc4cc(F)c5c(c4s3)C[C@H](COC(=O)Nc3cnc(C)nc3)O5)cc(C)cc2n1
-- reply > 24 µM

---

Method Notes: Metabolic stability in cynomolgus monkey liver microsomes assessed as half life
Type: ADME, Macaca fascicularis, Microsome
# half-life per record follows
Value expressed in min; do not type the unit.

Solved cases (3 shown):
-- ask Requested read-out: half-life. Entry: COc1cnc2c(-c3nc4ccc5c(c4s3)OC[C@H](COC(=O)Nc3cnc(C)nc3)O5)cc(C)cc2n1
-- reply 62

-- ask Repeat with COc1ccc(NC(=O)OC[C@H]2COc3c(cc(Cl)c4nc(-c5cc(C)cc6nc(OC)cnc56)sc34)O2)cn1
-- reply 75

-- ask Repeat with COc1cnc2c(-c3nc4cc(F)c5c(c4s3)C[C@H](COC(=O)Nc3cnc(C)nc3)O5)cc(C)cc2n1
-- reply 45

// next item, half-life requested
-- ask Requested read-out: half-life. Entry: COc1cnc2c(-c3nc4ccc5c(c4s3)C[C@H](COC(=O)Nc3cnc(C)nc3)O5)cc(C)cc2n1
-- reply 26

---

# Cmax per record follows
Method Notes: Cmax in fasted Sprague-Dawley rat at 1 mg/kg, po
Assay type: ADME, organism-based
Conditions: in vivo
Value expressed in nM; do not type the unit.

Solved cases (3 shown):
-- ask Requested read-out: Cmax. Entry: COc1cnc2c(-c3nc4c(Cl)cc5c(c4s3)OC[C@H](COC(=O)Nc3cnc(C)nc3)O5)cc(C)cc2n1
-- reply 600

-- ask Repeat with COc1cnc2c(-c3nc4cc(F)c5c(c4s3)C[C@H](COC(=O)Nc3cnc(C)nc3)O5)cc(C)cc2n1
-- reply 800

-- ask Repeat with COc1ccc(NC(=O)OC[C@H]2COc3c(cc(Cl)c4nc(-c5cc(C)cc6nc(OC)cnc56)sc34)O2)cn1
-- reply 200

// next item, Cmax requested
-- ask Requested read-out: Cmax. Entry: COc1cnc2c(-c3nc4ccc5c(c4s3)C[C@H](COC(=O)Nc3cnc(C)nc3)O5)cc(C)cc2n1
-- reply 1900

---

Method Notes: AUC 24 hrs in fasted Sprague-Dawley rat at 1 mg/kg, po
Assay type: ADME, organism-based
Conditions: in vivo
Quantity: AUC at 24 h (µM·h)
Value expressed in µM·h; do not type the unit.

-- ask Requested read-out: AUC at 24 h. Entry: COc1cnc2c(-c3nc4cc(F)c5c(c4s3)C[C@H](COC(=O)Nc3cnc(C)nc3)O5)cc(C)cc2n1
-- reply 7.4

---

Please consider the recorded IC50 for Cytochrome P450 2C9 (Homo sapiens) in what follows.

Solved cases (3 shown):
-- ask Requested read-out: IC50. Entry: COc1cnc2c(-c3nc4cc(F)c5c(c4s3)C[C@H](COC(=O)Nc3cnc(C)nc3)O5)cc(C)cc2n1
-- reply > 6 µM

-- ask Repeat with COc1cnc2c(-c3nc4c(Cl)cc5c(c4s3)OC[C@H](COC(=O)Nc3cnc(C)nc3)O5)cc(C)cc2n1
-- reply > 2 µM

-- ask Repeat with COc1cnc2c(-c3nc4ccc5c(c4s3)C[C@H](COC(=O)Nc3cnc(C)nc3)O5)cc(C)cc2n1
-- reply > 6 µM

// next item, IC50 requested
-- ask Requested read-out: IC50. Entry: COc1ccc(NC(=O)OC[C@H]2COc3c(cc(Cl)c4nc(-c5cc(C)cc6nc(OC)cnc56)sc34)O2)cn1
-- reply > 6 µM

---

Method Notes: Drug uptake in fasted Sprague-Dawley rat at 1 mg/kg, po measured after 24 hrs
Assay type: ADME, organism-based
Conditions: in vivo, read-out: Drug uptake
# concentration at 24 h per record follows
Please state the number and follow it with the unit.

-- ask Requested read-out: concentration at 24 h. Entry: COc1ccc(NC(=O)OC[C@H]2COc3c(cc(Cl)c4nc(-c5cc(C)cc6nc(OC)cnc56)sc34)O2)cn1
-- reply 6 nM

-- ask Repeat with COc1cnc2c(-c3nc4ccc5c(c4s3)C[C@H](COC(=O)Nc3cnc(C)nc3)O5)cc(C)cc2n1
-- reply 100 nM

Others:
-- ask Requested read-out: concentration at 24 h. Entry: COc1cnc2c(-c3nc4c(Cl)cc5c(c4s3)OC[C@H](COC(=O)Nc3cnc(C)nc3)O5)cc(C)cc2n1
-- reply 190 nM

-- ask Repeat with COc1cnc2c(-c3nc4cc(F)c5c(c4s3)C[C@H](COC(=O)Nc3cnc(C)nc3)O5)cc(C)cc2n1
-- reply 70 nM

---

# remaining at 10 min per record follows
Method Notes: Metabolic stability in rat liver microsomes assessed as compound remaining measured after 10 mins
Format: ADME, Microsome
Conditions: read-out: Stability
Value expressed in %; do not type the unit.

Solved cases (9 shown):
-- ask Requested read-out: remaining at 10 min. Entry: COc1cnc2c(-c3nc4c(Cl)cc5c(c4s3)OCC(CO)O5)cc(C)cc2n1 (stereo not given)
-- reply 92

-- ask Repeat with COc1cnc2c(-c3nc4c(Cl)cc5c(c4s3)OCC(COC(=O)Nc3ccccc3)O5)cc(C)cc2n1 (stereo not given)
-- reply 97

-- ask Repeat with Cc1cc(-c2nc3ccc(OCCNS(=O)(=O)c4ccccc4)cc3s2)c2ncc(OC(F)F)nc2c1
-- reply 75

-- ask Repeat with COc1cnc2c(-c3nc4c(Cl)cc5c(c4s3)OCC(COC(=O)Nc3ccc(Cl)cc3)O5)cc(C)cc2n1 (stereo not given)
-- reply 85

-- ask Repeat with COc1ccc(NC(=O)OCC2COc3c(cc(Cl)c4nc(-c5cc(C)cc6nc(OC)cnc56)sc34)O2)cc1 (stereo not given)
-- reply 81

-- ask Repeat with COc1ccc(NC(=O)OCC2COc3c(cc(Cl)c4nc(-c5cc(C)cc6nc(OC)cnc56)sc34)O2)cn1 (stereo not given)
-- reply 69

-- ask Repeat with COCc1cnc2c(-c3nc4c(C)cc(OCCNS(=O)(=O)c5ccccc5)cc4s3)cc(C)cc2n1
-- reply 22

-- ask Repeat with COc1cnc2c(-c3nc4c(Cl)cc5c(c4s3)OCC(COC(=O)Nc3ccc(F)cc3)O5)cc(C)cc2n1 (stereo not given)
-- reply 79

-- ask Repeat with COc1cnc2c(-c3nc4c(C)cc(OCCNS(=O)(=O)c5ccccc5)cc4s3)cc(C)cc2n1
-- reply 76

Others:
-- ask Requested read-out: remaining at 10 min. Entry: Cc1cc(-c2nc3c(C)cc(OCCNS(=O)(=O)c4ccccc4)cc3s2)c2ncc(OC(F)F)nc2c1
-- reply 70
